# System tested: UniProt Q9Y4D2
# Sequence (Q9Y4D2 whole entry): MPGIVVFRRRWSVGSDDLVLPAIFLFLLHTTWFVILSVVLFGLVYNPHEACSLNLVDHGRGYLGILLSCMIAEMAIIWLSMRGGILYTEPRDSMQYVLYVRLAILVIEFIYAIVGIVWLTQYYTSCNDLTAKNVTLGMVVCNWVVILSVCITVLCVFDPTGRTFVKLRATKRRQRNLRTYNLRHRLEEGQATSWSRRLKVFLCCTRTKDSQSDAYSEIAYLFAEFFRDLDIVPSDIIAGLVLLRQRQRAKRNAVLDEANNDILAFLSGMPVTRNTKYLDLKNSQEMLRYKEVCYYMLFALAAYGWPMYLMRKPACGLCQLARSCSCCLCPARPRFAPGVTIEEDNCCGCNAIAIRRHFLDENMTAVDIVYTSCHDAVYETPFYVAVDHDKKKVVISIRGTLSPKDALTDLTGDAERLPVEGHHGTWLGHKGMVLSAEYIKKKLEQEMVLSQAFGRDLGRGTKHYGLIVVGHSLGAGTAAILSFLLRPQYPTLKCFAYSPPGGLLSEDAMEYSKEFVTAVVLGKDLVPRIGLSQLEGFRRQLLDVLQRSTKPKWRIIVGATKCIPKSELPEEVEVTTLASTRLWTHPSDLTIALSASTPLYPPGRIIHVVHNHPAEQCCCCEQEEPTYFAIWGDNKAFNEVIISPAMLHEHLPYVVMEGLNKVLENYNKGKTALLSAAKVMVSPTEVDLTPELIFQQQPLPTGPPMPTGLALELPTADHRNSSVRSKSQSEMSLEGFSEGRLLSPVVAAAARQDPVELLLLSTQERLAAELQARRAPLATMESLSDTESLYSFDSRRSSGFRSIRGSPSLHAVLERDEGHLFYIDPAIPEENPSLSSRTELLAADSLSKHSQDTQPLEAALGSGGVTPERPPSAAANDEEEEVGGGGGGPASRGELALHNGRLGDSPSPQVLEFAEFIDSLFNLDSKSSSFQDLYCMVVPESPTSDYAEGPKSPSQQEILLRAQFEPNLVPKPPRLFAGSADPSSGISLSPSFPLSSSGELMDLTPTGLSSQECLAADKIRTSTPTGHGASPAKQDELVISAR
# Assay remarks: Inhibition of recombinant human DAGLalpha expressed in HEK293 cells using PNP-butyrate as substrate pretreated for 20 to 30 mins followed by substrate addition measured every 60 secs for 20 mins by colorimetric method
# Format: cell-based
# maps each entry to its IC50

- Compound structure: "O=C(N1CCC=C[C@@H]1COCc1ccccc1)n1cnc(-c2ccc(-c3ccccc3)cc2)c1"
  IC50: "> 10 µM"
- Compound structure: "O=C(N1CC=C[C@@H](O)[C@H]1COCc1ccccc1)n1cc(-c2ccc(-c3ccccc3)cc2)nn1"
  IC50: "> 10 µM"
- Compound structure: "O=C(N1C[C@H](O)C=C[C@H]1COCc1ccccc1)n1cc(-c2ccc(-c3ccccc3)cc2)nn1"
  IC50: "> 10 µM"
